Entry source: patent US20110171242A1

# study_target: T1, human HVEM:Fc (Fc of human IgG1) (human, UniProt Q92956 39-184)
# T1 construct: range 1-184; Bivalent chimeric protein made with baculovirus vector pVL1392; also called huHVEM:Fc; hu HVEM:Fc; not shown: Fc region of human IgG1
# T1 sequence (looked up): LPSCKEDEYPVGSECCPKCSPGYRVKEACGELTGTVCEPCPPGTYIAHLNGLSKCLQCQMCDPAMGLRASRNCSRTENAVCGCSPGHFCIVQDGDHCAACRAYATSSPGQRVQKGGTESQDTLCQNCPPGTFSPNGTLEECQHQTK
# measurement_notes: SPR (BIAcore 1000), receptor:Fc amine-coupled to CM5 chip, LIGHT as analyte 100-500 nM, 25 C
measure: kon (M⁻¹ s⁻¹)
Just the number please, in M⁻¹ s⁻¹, no unit attached.

Here is how some binders turned out for kon.
1) LIGHT t66 Y173F (ligand, not shown: small tags and cut ends, FLAG-tagged point mutant from transiently transfected 293T cells, homotrimer) EMVTRLPDGPAGSWEQLIQERRSHEVNPAAHLTGANSSLTGSGGPLLWETQLGLAFLRGLSYHDGALVVTKAGYYYIYSKVQLGGVGCPLGLASTITHGLYKRTPRFPEELELLVSQQSPCGRATSSSRVWWDSSFLGGVVHLEAGEEVVVRVLDERLVRLRDGTRSYFGAFMV; 19000
2) LIGHTt66-FLAG (ligand, not shown: small tags and cut ends, also called soluble homotrimeric LIGHT; recombinant soluble LIGHT) EMVTRLPDGPAGSWEQLIQERRSHEVNPAAHLTGANSSLTGSGGPLLWETQLGLAFLRGLSYHDGALVVTKAGYYYIYSKVQLGGVGCPLGLASTITHGLYKRTPRYPEELELLVSQQSPCGRATSSSRVWWDSSFLGGVVHLEAGEEVVVRVLDERLVRLRDGTRSYFGAFMV; 12000

Continue with the binder presented below.
Query: Which kon is reported for this binder? LIGHT t66 G119E (ligand, not shown: small tags and cut ends, FLAG-tagged point mutant from transiently transfected 293T cells, homotrimer; also called LIGHTG119E; LIGHT-G119E) EMVTRLPDGPAGSWEQLIQERRSHEVNPAAHLTGANSSLTGSGGPLLWETQLELAFLRGLSYHDGALVVTKAGYYYIYSKVQLGGVGCPLGLASTITHGLYKRTPRYPEELELLVSQQSPCGRATSSSRVWWDSSFLGGVVHLEAGEEVVVRVLDERLVRLRDGTRSYFGAFMV
Reply: 18000
